Origin of the recorded values: patent US20250361322A1

target: human Tissue Factor (TF) (human, UniProt P13726 33-295); assay: cell-based or functional assay
Please provide measured % IL8 at 6.4 nM antibody for the entries that follow.

q: Read the entry 25G (antibody, human IgG1, V domains shown, Human IgG1; also called antibody designated 25G) VH: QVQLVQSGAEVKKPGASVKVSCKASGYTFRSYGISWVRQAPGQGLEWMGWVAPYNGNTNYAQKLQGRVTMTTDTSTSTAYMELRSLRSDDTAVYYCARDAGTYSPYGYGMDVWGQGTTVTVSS VL: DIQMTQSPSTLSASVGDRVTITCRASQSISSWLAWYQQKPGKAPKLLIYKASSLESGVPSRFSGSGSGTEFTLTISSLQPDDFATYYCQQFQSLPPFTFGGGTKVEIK and write its reported % IL8 at 6.4 nM antibody.
a: 22%

q: Read the entry 25A (antibody, human IgG1, V domains shown, Human IgG1; also called antibody designated 25A; Antibody Clone 25A) VH: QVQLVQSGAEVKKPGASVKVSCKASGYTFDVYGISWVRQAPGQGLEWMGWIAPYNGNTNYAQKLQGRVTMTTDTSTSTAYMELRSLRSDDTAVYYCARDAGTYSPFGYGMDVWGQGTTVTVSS VL: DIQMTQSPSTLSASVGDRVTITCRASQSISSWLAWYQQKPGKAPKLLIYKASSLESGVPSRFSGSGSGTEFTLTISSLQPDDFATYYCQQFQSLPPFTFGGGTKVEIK and write its reported % IL8 at 6.4 nM antibody.
a: 11%

q: Read the entry 25G1 (antibody, human IgG1, V domains shown) VH: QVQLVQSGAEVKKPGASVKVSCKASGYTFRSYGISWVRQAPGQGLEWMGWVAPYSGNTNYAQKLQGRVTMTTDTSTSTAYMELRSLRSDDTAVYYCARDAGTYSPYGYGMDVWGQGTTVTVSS VL: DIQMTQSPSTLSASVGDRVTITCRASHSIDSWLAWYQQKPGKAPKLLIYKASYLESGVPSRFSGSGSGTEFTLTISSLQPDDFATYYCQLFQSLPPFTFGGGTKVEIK and write its reported % IL8 at 6.4 nM antibody.
a: 12%
